Tested on: UO-31 renal
Assay: NCI-60 one-dose screen, 48 h (100 = growth as untreated, 0 = no growth, -100 = all killed)
Settings: 10 µM unless noted
About 83,000 compounds went through this panel and 20% of them were active in at least one assay; those are over-represented in the sample as a whole.
// returns criterion not met unless growth is strictly below 80%, in which case criterion met

Exercise: Here's an entry: Cc1nn(-c2ccccc2)cc1/C=N/Nc1nc(Nc2ccccc2)nc(Nc2ccc(S(N)(=O)=O)cc2)n1 . Is its growth below 80%?
Solution: criterion met

Exercise: Here's an entry: C#C[C@]1(O)CC[C@H]2[C@@H]3CC=C4c5sc(Nc6ccncc6)nc5CC[C@]4(C)[C@H]3CC[C@@]21C . Is its growth below 80%?
Solution: criterion met

Exercise: Here's an entry: Oc1ccc(CSc2nnc(-c3cnccn3)o2)c2cccnc12 . Is its growth below 80%?
Solution: criterion met

Exercise: Here's an entry: N=c1c2cc(-c3ccccc3)oc2ncn1/N=C/c1ccccc1 . Is its growth below 80%?
Solution: criterion not met

Exercise: Here's an entry: COc1ccc2c(C3=C(c4c[nH]c5ccccc45)C(=O)N(O)C3=O)coc2c1 . Is its growth below 80%?
Solution: criterion met

----------
System: HCT-116 colon
Experiment: NCI-60 one-dose screen, 48 h (100 = growth as untreated, 0 = no growth, -100 = all killed)
Conditions: 10 µM unless noted
Compounds without any hit were thinned out: in the full panel of roughly 83,000, 20% have a hit.
For each record, write down the corresponding growth.
The response must be a number in % with no trailing unit.

Exercise: Specify growth for CCCCCCNC(=O)Oc1ccc(/C(=C(/C)c2ccc(OC)cc2)c2ccc(OCCN3CCCC3)cc2)cc1 and stop.
Solution: 31.4

Exercise: Specify growth for CCOC(=O)C1=C(C)Nc2nc3ccccc3n2C1c1ccccc1 (stereo not given) and stop.
Solution: 69.1

Exercise: Specify growth for COc1cc(O)c2c(c1)/C=C/C[C@H](O)[C@H](O)C(=O)/C=C\C[C@H](C)OC2=O and stop.
Solution: -16.3

Exercise: Specify growth for COc1cc2cc(Oc3ccc(NC(=O)Nc4cccc(C(F)(F)F)c4)cc3)c(C)nc2cc1OCCN(C)C and stop.
Solution: 82.8

Exercise: Specify growth for COc1ccc(C(=O)n2cc(C=O)c3ccccc32)cc1 and stop.
Solution: 91.3

----------
System: MDA-MB-435 melanoma
Test: NCI-60 one-dose screen, 48 h (100 = growth as untreated, 0 = no growth, -100 = all killed)
Details: 10 µM unless noted
This is part of a sample that, as a whole, favours compounds with a hit. Of some 83,000 tested, about 20% had one in any assay.
Kind request: treat 90% as inclusive, so growth at 90% or higher is yes, anything lower is no.

Exercise: Form field: growth at least 90%? Entry: COc1ccc(N)cc1C(=O)Nc1cccc(-c2cc(=O)c3c(OC)c(OC)c(OC)cc3o2)c1
Solution: no

Exercise: Form field: growth at least 90%? Entry: O=c1c2c(O)cccc2oc2c3c(cc(O)c12)O[C@H]1OC=C[C@@H]31
Solution: no

Exercise: Form field: growth at least 90%? Entry: NS(=O)(=O)c1ccc(Nc2nc(N/N=C/c3ccc([N+](=O)[O-])cc3)nc(Nc3ccccc3)n2)cc1
Solution: no

Exercise: Form field: growth at least 90%? Entry: Cc1cc(=O)n2nc(-c3cn(C)c4ccc(Cl)cc34)sc2n1
Solution: yes

Exercise: Form field: growth at least 90%? Entry: CS(=O)(=O)c1ccc(-c2nn(-c3ccccc3)cc2/C=C/C(=O)c2ccc(Br)cc2)cc1
Solution: yes

Exercise: Form field: growth at least 90%? Entry: O=C1NC(=O)/C(=C/c2ccc(OCc3cc4ccccc4nc3Cl)cc2)S1
Solution: yes

Exercise: Form field: growth at least 90%? Entry: COc1ccc(CCN2C(=O)CSC2=S)cc1OC
Solution: yes

Exercise: Form field: growth at least 90%? Entry: CCN1C(=O)N(CC)C2SC(N/N=C/C=C/c3ccccc3OC)=NC21 (centres undefined)
Solution: no

Exercise: Form field: growth at least 90%? Entry: CN(c1ccc(Br)cc1)S(=O)(=O)c1ccc(-c2cnc(C3CC3)o2)cc1
Solution: no

Exercise: Form field: growth at least 90%? Entry: O=c1[nH]c(CNc2ccc(NCc3c(-c4ccccc4)no[n+]3[O-])cc2)nc2c1cnn2-c1ccccc1
Solution: no

Exercise: Form field: growth at least 90%? Entry: O=C(Nc1cccc(Cl)c1)Nc1nc2ccc([N+](=O)[O-])cc2s1
Solution: no

Exercise: Form field: growth at least 90%? Entry: O=c1oc2ccc(-c3ccc(F)cc3F)cc2c(=O)n1-c1ccc(F)c(F)c1
Solution: no

Exercise: Form field: growth at least 90%? Entry: COC(=O)[C@@]1(C)CC[C@]2(C)CC[C@]3(C)C(=CC(=O)[C@@H]4[C@@]5(C)Cc6c(n(CC#CCN7CCN(C)CC7)c7ccccc67)C(C)(C)[C@@H]5CC[C@]43C)[C@@H]2C1
Solution: no

Exercise: Form field: growth at least 90%? Entry: Cn1cc(-c2nn3cc(-c4cccnc4)nc3s2)c2ccccc21
Solution: no

Exercise: Form field: growth at least 90%? Entry: CCCCCCNC(=O)Oc1ccc(/C(=C(\C)c2ccc(Cl)cc2)c2ccc(OCCN(C)C)cc2)cc1
Solution: no

Exercise: Form field: growth at least 90%? Entry: Oc1ccccc1-c1nnc(SCc2ccc(O)c3ncccc23)n1-c1ccccc1
Solution: no

Exercise: Form field: growth at least 90%? Entry: CCCCSc1nnc(-c2ccc(-c3ccc(Cl)cc3)nc2C)o1
Solution: yes

Exercise: Form field: growth at least 90%? Entry: CC1CCc2c(sc3nc(SCC(=O)N/N=C/c4ccc(Cl)cc4)n(-c4ccccc4)c(=O)c23)C1 (centres undefined)
Solution: yes

----------
System: HOP-62 NSCLC
Test: NCI-60 one-dose screen, 48 h (100 = growth as untreated, 0 = no growth, -100 = all killed)
Settings: 10 µM unless noted
About 83,000 compounds went through this panel and 20% of them were active in at least one assay; those are over-represented in the sample as a whole.
measured attribute: growth (%)
The response must be a number in % with no trailing unit.

Exercise: Specify growth for N/C(=N\c1nc2c(Cl)cccc2s1)C(Cl)(Cl)Cl and stop.
Solution: 40.8

Exercise: Specify growth for COc1cc2c3c(n(CCCNC4CCCCC4)c(=O)c2cc1OC)-c1cc2c(cc1C3=O)OCO2 and stop.
Solution: -78.9

Exercise: Specify growth for CCOC(=O)CC(=O)CSC1=NC2C(NN1)N(C)C(=O)N2C (centres undefined) and stop.
Solution: 107

Exercise: Specify growth for CN1CCN(c2ccc(C(=O)Nc3cccc(-c4cn(-c5ccc(S(N)(=O)=O)cc5)nn4)c3)cc2C(F)(F)F)CC1 and stop.
Solution: 85.7

Exercise: Specify growth for Cc1cc(O)c(=O)cc2c1C[C@H]1CC(C)(C)/C=C/C[C@]3(C)Oc4cc(=O)c(O)cc(C)c4C[C@H]3C[C@H](O)[C@@]1(C)O2 and stop.
Solution: -12.4

Exercise: Specify growth for C#CCOc1ccc(C(Nc2cc(Cl)ccc2Cl)c2nnnn2C2CCCCC2)cc1 (centres undefined) and stop.
Solution: 86.4

Exercise: Specify growth for COc1cc2c3c(n(CCCN4CCCCC4)c(=O)c2cc1OC)-c1cc2c(cc1C3=O)OCO2 and stop.
Solution: -71.4

Exercise: Specify growth for C=C(C)[C@@H]1CC[C@]2(COS(C)(=O)=O)CC[C@]3(C)[C@H](CC[C@@H]4[C@@]5(C)CCCNC(C)(C)[C@@H]5CC[C@]43C)[C@@H]12 and stop.
Solution: 101

Exercise: Specify growth for CCOC(=O)c1ccc(N/C=C/C(=O)c2ccccc2)cc1 and stop.
Solution: 111

----------
Test system: HS 578T breast
Assay: NCI-60 one-dose screen, 48 h (100 = growth as untreated, 0 = no growth, -100 = all killed)
Conditions: 10 µM unless noted
Compounds without any hit were thinned out: in the full panel of roughly 83,000, 20% have a hit.
measured attribute: growth (%)
The response must be a number in % with no trailing unit.

Exercise: Lab note: HS 578T breast assay, enter growth for CN(C)c1ncc(/C=C2\SC(=S)N(Cc3ccccc3Cl)C2=O)s1 here
Solution: 101

Exercise: Lab note: HS 578T breast assay, enter growth for O=C1[C@H]2Cc3c([nH]c4ccccc34)[C@@H](c3ccc(Cl)cc3)N2C(=O)CN1C1CCN(Cc2c(Cl)cccc2Cl)CC1 here
Solution: 88.2

Exercise: Lab note: HS 578T breast assay, enter growth for N#C/C(=C\c1ccc(Cl)cc1Cl)C(N)=O here
Solution: 99

Exercise: Lab note: HS 578T breast assay, enter growth for CC1COc2c(N3CCN(C)CC3)c(F)cc3c(=O)c(C(=O)N/N=C/c4cc[nH]c4)cn1c23 (stereo not given) here
Solution: 67.5

Exercise: Lab note: HS 578T breast assay, enter growth for COc1cc(C2CC(c3ccc(Nc4nc(NCCO)nc(Nc5ccc(Cl)cc5)n4)cc3)=Nc3c(N)nc(N)nc3N2)cc(OC)c1OC (stereo not given) here
Solution: 35
